- Tested on: OVCAR-4 ovarian
- Measurement Notes: NCI tumour cell line growth inhibition, 48 h
Reported TGI is given for each of the following molecules.

Below: 2 molecules and their reported TGI.
Molecule: Cc1ccnc2nc(N)ccc12
Assay Value: > 100 µM
--
Molecule: O=C(Nc1ccc(-n2ccc3c(NC(=O)c4ccccc4)ncnc32)cc1)c1cccc(C(F)(F)F)c1
Assay Value: 31.2 µM

## Task Missing value: TGI, OVCAR-4 ovarian, entry Cc1cccc2c1c1ccc3c(c1n2C)C(=O)C=CC3=O . Fill in?
## Result 24.3 µM

## Task Also, COc1cccc(CN(C)c2ccc(CO)c(Cl)c2)c1 please.
## Result 29.4 µM

* * *

- Tested on: OVCAR-3 ovarian
- Measurement Notes: NCI tumour cell line growth inhibition, 48 h
Metric: TGI

Below: 2 compounds and their reported TGI.
Compound: Cn1cccc1-c1cc(-c2ccccc2)[nH]c(=O)c1C#N
TGI: > 100 µM

Compound: CCOc1ccc(N=NC2C(=O)N(C(=O)CC(=O)Nc3ccccc3)N=C2C)cc1 (stereo not drawn)
TGI: > 100 µM

## Task For Cc1ccc(-c2nnc(CCCCCCCCc3nnc(-c4ccc(C)cc4O)n3N)n2N)c(O)c1 , what is its reported TGI?
## Result > 100 µM

* * *

- Test system: HCC-2998 colon
- Measurement Notes: NCI tumour cell line growth inhibition, 48 h
Metric: TGI

Molecule: COC(=O)C1C(=O)CC2CCCCC21 (configuration not stated)
TGI: > 100 µM

Please examine the following record next.
## Task For O=C1C=C2CCC[C@H]3OC(=O)C[C@@]23CC1 , what is its reported TGI?
## Result > 100 µM

* * *

- Test system: SK-OV-3 ovarian
- Measurement Notes: NCI tumour cell line growth inhibition, 48 h
Metric: TGI

Compound: O=S(=O)(c1ccc(-c2nnc(-c3ccc(F)cc3)o2)cc1)c1ccc(-c2nnc(-c3ccc(F)cc3)o2)cc1
System Name: SK-OV-3 ovarian
TGI: 90.3 µM
--
Compound: COC(=O)CCC12CCC(=O)C1[C@@H](C(=O)OC)C[C@H]2C(=O)OC (stereo partly specified)
System Name: SK-OV-3 ovarian
TGI: > 100 µM
--
Compound: C#CCNC(=O)NCCCCC(NC(=O)OCc1ccccc1)C(=O)OCc1ccccc1 (stereo unspecified)
System Name: SK-OV-3 ovarian
TGI: > 100 µM
--
Compound: Cc1ccc(S(=O)(=O)NC(=O)NC(CCCCN=C(N)N)C(=O)O)cc1 (stereo unspecified)
System Name: SK-OV-3 ovarian
TGI: > 100 µM

## Task For CCCCCCCCCC(=O)N[C@@H](c1ccco1)[C@@H](O)C(=O)O[C@H]1C[C@@]2(O)[C@@H](OC(=O)c3ccccc3)[C@@H]3[C@]4(OC(C)=O)CO[C@@H]4C[C@H](O)[C@@]3(C)C(=O)[C@H](OC(C)=O)C(=C1C)C2(C)C , what is its reported TGI?
## Result > 18.7 µM

## Task Also, O=C(C#Cc1ccccc1)N1c2ccccc2CC1c1c[nH]c2ccccc12 (stereo unspecified) please.
## Result 51 µM

## Task Also, COC(=O)CCc1c(Cc2ccc[nH]2)[nH]c(C(=O)OCc2ccccc2)c1C please.
## Result > 100 µM

## Task Also, CC1(c2cc3c(cc2Br)OCO3)SCCCS1 please.
## Result > 100 µM

## Task Also, CN(C)c1nc(=NCc2ccco2)ss1 please.
## Result > 87 µM

* * *

- Test system: SF-295 CNS
- Measurement Notes: NCI tumour cell line growth inhibition, 48 h; in the data active means GI50 below about 0.43 µM; inactive means the rest
Tick one outcome: true for active, false for inactive

Worked cases, answers included:
Chemical Smiles: CN1CCN(Cc2ccc(NC(=O)c3cncc(C#Cc4cnc(N)cc4C#N)c3)cc2C(F)(F)F)CC1
Class: false
--
Chemical Smiles: CCCCCCCCOC(=O)c1c(C)[nH]c(/C=C2\N=C(c3ccc[nH]3)C=C2OC)c1C
Class: true

Please find the next compound below.
## Task Hey, what did the test say about COC(=O)C12CC(NC(=O)c3csc([C@@H](C[C@H](C(C)C)N(C)C(=O)[C@@H](NC(=O)[C@H]4CCCCN4C)C4CC4)OC(C)=O)n3)(C1)C2 ?
## Result true

* * *

- System: NCI-H226 lung
- Measurement Notes: NCI tumour cell line growth inhibition, 48 h
Reported TGI is given for each of the following molecules.

Below: 5 molecules and their reported TGI.
Molecule: CCOC(=O)NNC(=O)NCc1ccccc1CNC(=O)NNC(=O)OCC
Metric: TGI
Assay Value: > 100 µM
--
Molecule: CCOc1ccc2c(c1)C(=O)c1c-2n(CCCBr)c(=O)c2cc([N+](=O)[O-])ccc12
Metric: TGI
Assay Value: > 100 µM
--
Molecule: O=c1[nH]c(=O)n(COCCO)c2ccsc12
Metric: TGI
Assay Value: > 100 µM
--
Molecule: C[S+](C)CC1OC(n2cnc3c(N)ncnc32)C(O)C1O (centres undefined)
Metric: TGI
Assay Value: > 225 µM
--
Molecule: CC(C)=CCOc1cc(NC(=S)c2ccsc2C)ccc1Cl
Metric: TGI
Assay Value: > 100 µM

Please examine the following record next.
## Task For O=C(Sc1c(-c2ccccc2)c(=O)n(-c2ccccc2)c(=S)n1-c1ccccc1)c1cccs1 , what is its reported TGI?
## Result > 100 µM

* * *

- Test system: SW-620 colon
- Measurement Notes: NCI tumour cell line growth inhibition, 48 h
Where a SMILES comes first, the peptide text is derived from it. [ ]: non-standard residue; d: D form. The star is where a group is joined. Bn2Val = CC(C)[C@@H](C(=O)*)N(Cc1ccccc1)Cc1ccccc1; NMeV = CN[C@H](C(=O)O)C(C)C; X29 = COc1ccc(CN*)c(OC)c1; dNMeA = CN[C@H](C)C(=O)O
Metric: TGI

Below: 4 compounds and their reported TGI.
Compound: COc1ccc(C2OCCN2C)cc1 (centres undefined)
TGI: > 100 µM

Compound: COc1ccc(CNC(=O)[C@@H]2CCCN2C(=O)[C@@H](C)N(C)C(=O)[C@H](C(C)C)N(C)C(=O)[C@@H](NC(=O)[C@H](C(C)C)N(Cc2ccccc2)Cc2ccccc2)C(C)C)c(OC)c1 (Bn2Val-V[NMeV][dNMeA]P-X29)
TGI: 20.6 µM

Compound: C[Si](C)(c1ccc(C(=O)O)cc1)c1ccc(C(=O)O)cc1
TGI: > 100 µM

Compound: CCOc1ccc(N=NC2C(=O)N(C(=O)CC(=O)Nc3ccccc3)N=C2C)cc1 (centres undefined)
TGI: > 100 µM

## Task For NCCCCC1NC(=O)C(CC(=O)O)NC(=O)CNC(=O)C(CCCN=C(N)N)NC(=O)C(N)CSSCC(C(=O)O)NC(=O)C(CC(=O)O)NC(=O)C2CCCN2C(=O)CNC1=O (centres undefined) , what is its reported TGI?
## Result > 100 µM

## Task Also, CC(=O)NC(CCCCN)C(=O)NCc1ccccc1 (centres undefined) please.
## Result > 100 µM

## Task Also, COC(=O)CC(C(C(=O)OCc1ccccc1)C(C)O)N1C(=O)OC(c2ccccc2)C1c1ccccc1 (centres undefined) please.
## Result > 100 µM

## Task Also, Oc1ccccc1C1C=C(c2ccccc2)NC(N2CCCCC2)=C1c1nc2ccccc2[nH]1 (centres undefined) please.
## Result 30.5 µM

* * *

- Test system: LOX IMVI melanoma
- Measurement Notes: NCI tumour cell line growth inhibition, 48 h
Metric: TGI

Compound: CN(Cc1ccc(C(F)(F)F)cc1)CC(O)C(=O)Nc1ccc(Cl)cc1 (stereo not drawn)
Metric: TGI
Assay Value: 2.3 µM

## Task Missing value: TGI, LOX IMVI melanoma, entry CC1(C)C(CCO)CC1n1ccc(=O)[nH]c1=O (stereo not drawn) . Fill in?
## Result > 100 µM

## Task Also, O=[N+]([O-])c1nccn1CC(O)CN1CCCCC1 (stereo not drawn) please.
## Result > 100 µM

* * *

- Tested on: SNB-75 CNS
- Measurement Notes: NCI tumour cell line growth inhibition, 48 h
Metric: TGI (µM)
Numbers only here, please. The scale is µM.

Below: 5 compounds and their reported TGI.
Compound: COc1ccc2nc3c(c(NCCCN(C)C)c2c1)CCCC3
TGI [µM]: 26.9
--
Compound: N#C/C(=C\c1cccc(O)c1O)C(N)=O
TGI [µM]: 47.2
--
Compound: O=C1C2=C(C(=O)c3cnccc31)C1C=CC2CC1 (stereo not given)
TGI [µM]: 2.73
--
Compound: C=C1C(=O)O[C@H]2[C@H]1CC/C(COC(=O)NCc1ccc(OC)cc1)=C\CC[C@@]1(C)O[C@@H]21
TGI [µM]: 15.3
--
Compound: COc1ccc(C(=O)c2cc3c(N)c(C(=O)Nc4ccccc4)sc3nc2C)cc1
TGI [µM]: 5.92

## Task For Cc1ccc(-n2cc(-c3ccc(Cl)cc3)c3c(NN)ncnc32)cc1 , what is its reported TGI?
## Result 7.6

## Task Also, Cc1cccc2c1c1ccc3c(c1n2C)C(=O)C=CC3=O please.
## Result 42.8

## Task Also, COC(=O)C(CCC(=O)CCl)N1C(=O)c2ccccc2C1=O (stereo not given) please.
## Result 29.3
